List of median seed-adjusted z-score values.
assay-overview: Novel Modifiers of Survival Motor Neuron (SMN) Protein: Gene Identification via Genome-wide siRNA Screen;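 also: luminescence tracks full-length SMN protein made from the SMN2 reporter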
experimental-setup: HEK293T SMN2-luciferase reporter, siRNA knockdown, 72 h; actives lie on both sides
Among all 31,000 sequences or so, about 1,400 (4.5%) were called active. Many of the other results were omitted from the sample, so actives are more common in it than they were.

Below, each entry is followed by its recorded median seed-adjusted z-score result.
Ask: Name the recorded median seed-adjusted z-score for GCAGUAAUAUUUAUCUCUUTT against SUCNR1 .
Result: 0 (inactive)

Ask: Name the recorded median seed-adjusted z-score for GCAUUGACUGGUCCUAUGATT against CPA2 .
Result: 0.0374 (inactive)

Consider now this further sequence.
Ask: Name the recorded median seed-adjusted z-score for GGUCAUUGCCCGAACAAUATT against BNC1 .
Result: -0.631 (inactive)

----------
assay-overview: Novel Modifiers of Survival Motor Neuron (SMN) Protein: Gene Identification via Genome-wide siRNA Screen;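 also: luminescence tracks full-length SMN protein made from the SMN2 reporter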
experimental-setup: HEK293T SMN2-luciferase reporter, siRNA knockdown, 72 h; actives lie on both sides
Screen size: about 31,000 sequences; about 1,400 (4.5%) were called active. This is one part of a sample in which actives are shown more often than they occur.
recorded-endpoint: median seed-adjusted z-score
Answer field: number only, no words.

Below, each entry is followed by its recorded median seed-adjusted z-score result.
Ask: Name the recorded median seed-adjusted z-score for CAAACGGGCUCAUCAUAAUTT against MAX .
Result: 0.0949

Ask: Name the recorded median seed-adjusted z-score for CCUGUACGAUGAGAUAGAATT against CYFIP2 .
Result: -0.322

Ask: Name the recorded median seed-adjusted z-score for GAAUGUGACAAUACAUUUATT against ZNF431 .
Result: 0.00537

Ask: Name the recorded median seed-adjusted z-score for GAAUUGGAGUGAUUCGAAUTT against NETO2 .
Result: -0.136

Consider now this further sequence.
Ask: Name the recorded median seed-adjusted z-score for CGAUAUCUGACGCAGCUAATT against RPS6KA2 .
Result: 0.139

----------
List of median seed-adjusted z-score values.
assay-overview: Novel Modifiers of Survival Motor Neuron (SMN) Protein: Gene Identification via Genome-wide siRNA Screen;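 also: luminescence tracks full-length SMN protein made from the SMN2 reporter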
experimental-setup: HEK293T SMN2-luciferase reporter, siRNA knockdown, 72 h; actives lie on both sides
In all, about 31,000 sequences went through this assay and about 1,400 (4.5%) were called active. Only a selection was taken, and actives are over-represented in it overall.
Answer field: number only, no words.

Below, each entry is followed by its recorded median seed-adjusted z-score result.
Ask: Name the recorded median seed-adjusted z-score for CACUCAGACGGGACGUUCATT against SCT .
Result: -0.454

Ask: Name the recorded median seed-adjusted z-score for CCACCUAUAAAGUUCUAAATT against CAPRIN1 .
Result: 1.36

Ask: Name the recorded median seed-adjusted z-score for CACUGACACUUACAAUGAATT against UGT3A1 .
Result: 0.864

Ask: Name the recorded median seed-adjusted z-score for GCAUUACAGUACUUACGUATT against BTAF1 .
Result: -1.19

Consider now this further sequence.
Ask: Name the recorded median seed-adjusted z-score for CAACAACCCUUAUCGUAAATT against POLQ .
Result: 0.203

----------
assay-overview: Novel Modifiers of Survival Motor Neuron (SMN) Protein: Gene Identification via Genome-wide siRNA Screen;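 also: luminescence tracks full-length SMN protein made from the SMN2 reporter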
experimental-setup: HEK293T SMN2-luciferase reporter, siRNA knockdown, 72 h; actives lie on both sides
Out of some 31,000 sequences screened, about 1,400 (4.5%) were called active.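 Rule for the calls: active = median seed-adjusted z-score above 1 or below -1; inactive = the rest.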 The sample as a whole holds a higher share of actives than the screen did.
The categories you may choose from are t for active, f for inactive

Examples with answers:
Ask: What classification did GGCCGAAUUUAUAAAGGAATT against CHI3L1 end up with in this test?
Result: f

Ask: What classification did CCUAAAUGAUCGCAAAGUATT against PABPC1 end up with in this test?
Result: f

Ask: What classification did GGUGCGGAGAGAUGAGAUATT against PPM1M end up with in this test?
Result: f

Ask: What classification did GAUUAAUCCUUCAAUGAUUTT against TAF9B end up with in this test?
Result: f

Ask: What classification did GGAAGUGCCCAGUGACUUATT against SLPI end up with in this test?
Result: f

More entries:
Ask: What classification did AGUACUUUGUAUUGGGAUATT against RCE1 end up with in this test?
Result: t

Ask: What classification did GAGAGUAAAUAUGCGAAUATT against ATP8B1 end up with in this test?
Result: f

Ask: What classification did AGCCUGAAAGUAUCCGUAATT against CLTA end up with in this test?
Result: f

Ask: What classification did GCAUCGCAGUGCUAAACAUTT against DGKA end up with in this test?
Result: t

Ask: What classification did GACUGAUCCCUCUACUUCATT against SNTG1 end up with in this test?
Result: f

Ask: What classification did CAUUGGUUUUGAUGAGUAUTT against SNRPE end up with in this test?
Result: t

Ask: What classification did GCUCAGCAUUGUCUGCAAATT against RNASE6 end up with in this test?
Result: f

Ask: What classification did GGGUUAAUGUUGAGGAAUUTT against NME7 end up with in this test?
Result: f

Ask: What classification did GAGAUGCUGUGAGUAGGUATT against TTC9C end up with in this test?
Result: f
